test system: CHO cells expressing human APP; experiment: Secreted Aβ40/Aβ42 ELISA in medium of CHO-APP cells; assay type: cell-based, Chinese hamster; details: heat-processing derived ginsenosides
Experimental endpoint: secretion of Aβ42 (initial screening)

Compound	Target of assay	Experimental endpoint	Result
C=C(CCC=C(C)C)[C@H]1CC[C@]2(C)[C@@H]1[C@H](O)C[C@@H]1[C@@]3(C)CC[C@H](O[C@@H]4O[C@H](CO)[C@@H](O)[C@H](O)[C@H]4O[C@@H]4O[C@H](CO)[C@@H](O)[C@H](O)[C@H]4O)C(C)(C)[C@@H]3CC[C@]12C	CHO cells expressing human APP	secretion of Aβ42 (initial screening)	selectively lowered
CC(C)=CCC[C@](C)(O)[C@H]1CC[C@]2(C)[C@@H]1[C@H](O)C[C@@H]1[C@@]3(C)CC[C@H](O[C@@H]4O[C@H](CO)[C@@H](O)[C@H](O)[C@H]4O[C@@H]4O[C@H](CO)[C@@H](O)[C@H](O)[C@H]4O)C(C)(C)[C@@H]3CC[C@]12C [(20S)Rg3]	CHO cells expressing human APP	secretion of Aβ42 (initial screening)	selectively lowered
CC(C)=CC/C=C(\C)[C@H]1CC[C@]2(C)[C@@H]1[C@H](O)C[C@@H]1[C@@]3(C)CC[C@H](O[C@@H]4O[C@H](CO)[C@@H](O)[C@H](O)[C@H]4O[C@@H]4O[C@H](CO)[C@@H](O)[C@H](O)[C@H]4O)C(C)(C)[C@@H]3CC[C@]12C	CHO cells expressing human APP	secretion of Aβ42 (initial screening)	selectively lowered

* * *

system: CHO cells expressing human APP; assay: Secreted Aβ40/Aβ42 ELISA in medium of CHO-APP cells; type: cell-based, Chinese hamster; set-up: key: Aβ42-lowering activity (“Yes”); no profound effects (“No”); non-determined (“ND”); Ginsenosides that affected cell viability are indicated as “Cytotoxic.”; settings: Tables 1-3
Experimental endpoint: Aβ42-lowering activity

Compound	Experimental endpoint	Result
CC(C)=CCC[C@](C)(O)[C@H]1CC[C@]2(C)[C@@H]1[C@H](O)C[C@@H]1[C@@]3(C)CC[C@H](O)C(C)(C)[C@@H]3[C@@H](O)C[C@]12C	Aβ42-lowering activity	Yes
CC(C)=CCCC(C)(O)[C@H]1CC[C@]2(C)[C@@H]1[C@H](O)C[C@@H]1[C@@]3(C)CC[C@H](O)C(C)(C)[C@@H]3CC[C@]12C (stereo in doubt)	Aβ42-lowering activity	No
CC(C)=CCC[C@](C)(O[C@@H]1O[C@H](CO[C@@H]2OC[C@H](O)[C@H](O)[C@H]2O)[C@@H](O)[C@H](O)[C@H]1O)[C@H]1CC[C@]2(C)[C@@H]1[C@H](O)C[C@@H]1[C@@]3(C)CC[C@H](O[C@@H]4O[C@H](CO)[C@@H](O)[C@H](O)[C@H]4O[C@@H]4O[C@H](CO)[C@@H](O)[C@H](O)[C@H]4O)C(C)(C)[C@@H]3CC[C@]12C	Aβ42-lowering activity	No
CC(C)=CCC[C@](C)(O[C@@H]1O[C@H](CO)[C@@H](O)[C@H](O)[C@H]1O)[C@H]1CC[C@]2(C)[C@@H]1[C@H](O)C[C@@H]1[C@@]3(C)CC[C@H](O)C(C)(C)[C@@H]3[C@@H](O[C@@H]3O[C@H](CO)[C@@H](O)[C@H](O)[C@H]3O)C[C@]12C	Aβ42-lowering activity	No
CC(C)=CCC[C@](C)(O)[C@H]1CC[C@]2(C)[C@@H]1[C@H](O)C[C@@H]1[C@@]3(C)CC[C@H](O[C@@H]4O[C@H](CO)[C@@H](O)[C@H](O)[C@H]4O[C@@H]4O[C@H](CO)[C@@H](O)[C@H](O)[C@H]4O)C(C)(C)[C@@H]3CC[C@]12C [(20S)Rg3]	Aβ42-lowering activity	Yes

* * *

test system: CHO cells expressing human APP; experiment: Secreted Aβ40/Aβ42 ELISA in medium of CHO-APP cells; type: cell-based, Chinese hamster; design: key: Aβ42-lowering activity (“Yes”); no profound effects (“No”); non-determined (“ND”); Ginsenosides that affected cell viability are indicated as “Cytotoxic.”; settings: Tables 1-3

Compound	Aβ42-lowering activity
CC(C)=CCC[C@](C)(O[C@@H]1O[C@H](CO[C@@H]2O[C@H](CO)[C@@H](O)[C@H](O)[C@H]2O)[C@@H](O)[C@H](O)[C@H]1O)[C@H]1CC[C@]2(C)[C@@H]1[C@H](O)C[C@@H]1[C@@]3(C)CC[C@H](O[C@@H]4O[C@H](CO)[C@@H](O)[C@H](O)[C@H]4O[C@@H]4O[C@H](CO)[C@@H](O)[C@H](O)[C@H]4O)C(C)(C)[C@@H]3CC[C@]12C [Rb1]	No
CC(C)=CC/C=C(\C)[C@H]1CC[C@]2(C)[C@@H]1[C@H](O)C[C@@H]1[C@@]3(C)CC[C@H](O[C@@H]4O[C@H](CO)[C@@H](O)[C@H](O)[C@H]4O[C@@H]4O[C@H](CO)[C@@H](O)[C@H](O)[C@H]4O)C(C)(C)[C@@H]3CC[C@]12C [Rg5]	Yes
